# system-name: Ros1 (Homo sapiens)
# Construct: purchased Reaction Biology Corp
# Sequence (P08922 28-2347): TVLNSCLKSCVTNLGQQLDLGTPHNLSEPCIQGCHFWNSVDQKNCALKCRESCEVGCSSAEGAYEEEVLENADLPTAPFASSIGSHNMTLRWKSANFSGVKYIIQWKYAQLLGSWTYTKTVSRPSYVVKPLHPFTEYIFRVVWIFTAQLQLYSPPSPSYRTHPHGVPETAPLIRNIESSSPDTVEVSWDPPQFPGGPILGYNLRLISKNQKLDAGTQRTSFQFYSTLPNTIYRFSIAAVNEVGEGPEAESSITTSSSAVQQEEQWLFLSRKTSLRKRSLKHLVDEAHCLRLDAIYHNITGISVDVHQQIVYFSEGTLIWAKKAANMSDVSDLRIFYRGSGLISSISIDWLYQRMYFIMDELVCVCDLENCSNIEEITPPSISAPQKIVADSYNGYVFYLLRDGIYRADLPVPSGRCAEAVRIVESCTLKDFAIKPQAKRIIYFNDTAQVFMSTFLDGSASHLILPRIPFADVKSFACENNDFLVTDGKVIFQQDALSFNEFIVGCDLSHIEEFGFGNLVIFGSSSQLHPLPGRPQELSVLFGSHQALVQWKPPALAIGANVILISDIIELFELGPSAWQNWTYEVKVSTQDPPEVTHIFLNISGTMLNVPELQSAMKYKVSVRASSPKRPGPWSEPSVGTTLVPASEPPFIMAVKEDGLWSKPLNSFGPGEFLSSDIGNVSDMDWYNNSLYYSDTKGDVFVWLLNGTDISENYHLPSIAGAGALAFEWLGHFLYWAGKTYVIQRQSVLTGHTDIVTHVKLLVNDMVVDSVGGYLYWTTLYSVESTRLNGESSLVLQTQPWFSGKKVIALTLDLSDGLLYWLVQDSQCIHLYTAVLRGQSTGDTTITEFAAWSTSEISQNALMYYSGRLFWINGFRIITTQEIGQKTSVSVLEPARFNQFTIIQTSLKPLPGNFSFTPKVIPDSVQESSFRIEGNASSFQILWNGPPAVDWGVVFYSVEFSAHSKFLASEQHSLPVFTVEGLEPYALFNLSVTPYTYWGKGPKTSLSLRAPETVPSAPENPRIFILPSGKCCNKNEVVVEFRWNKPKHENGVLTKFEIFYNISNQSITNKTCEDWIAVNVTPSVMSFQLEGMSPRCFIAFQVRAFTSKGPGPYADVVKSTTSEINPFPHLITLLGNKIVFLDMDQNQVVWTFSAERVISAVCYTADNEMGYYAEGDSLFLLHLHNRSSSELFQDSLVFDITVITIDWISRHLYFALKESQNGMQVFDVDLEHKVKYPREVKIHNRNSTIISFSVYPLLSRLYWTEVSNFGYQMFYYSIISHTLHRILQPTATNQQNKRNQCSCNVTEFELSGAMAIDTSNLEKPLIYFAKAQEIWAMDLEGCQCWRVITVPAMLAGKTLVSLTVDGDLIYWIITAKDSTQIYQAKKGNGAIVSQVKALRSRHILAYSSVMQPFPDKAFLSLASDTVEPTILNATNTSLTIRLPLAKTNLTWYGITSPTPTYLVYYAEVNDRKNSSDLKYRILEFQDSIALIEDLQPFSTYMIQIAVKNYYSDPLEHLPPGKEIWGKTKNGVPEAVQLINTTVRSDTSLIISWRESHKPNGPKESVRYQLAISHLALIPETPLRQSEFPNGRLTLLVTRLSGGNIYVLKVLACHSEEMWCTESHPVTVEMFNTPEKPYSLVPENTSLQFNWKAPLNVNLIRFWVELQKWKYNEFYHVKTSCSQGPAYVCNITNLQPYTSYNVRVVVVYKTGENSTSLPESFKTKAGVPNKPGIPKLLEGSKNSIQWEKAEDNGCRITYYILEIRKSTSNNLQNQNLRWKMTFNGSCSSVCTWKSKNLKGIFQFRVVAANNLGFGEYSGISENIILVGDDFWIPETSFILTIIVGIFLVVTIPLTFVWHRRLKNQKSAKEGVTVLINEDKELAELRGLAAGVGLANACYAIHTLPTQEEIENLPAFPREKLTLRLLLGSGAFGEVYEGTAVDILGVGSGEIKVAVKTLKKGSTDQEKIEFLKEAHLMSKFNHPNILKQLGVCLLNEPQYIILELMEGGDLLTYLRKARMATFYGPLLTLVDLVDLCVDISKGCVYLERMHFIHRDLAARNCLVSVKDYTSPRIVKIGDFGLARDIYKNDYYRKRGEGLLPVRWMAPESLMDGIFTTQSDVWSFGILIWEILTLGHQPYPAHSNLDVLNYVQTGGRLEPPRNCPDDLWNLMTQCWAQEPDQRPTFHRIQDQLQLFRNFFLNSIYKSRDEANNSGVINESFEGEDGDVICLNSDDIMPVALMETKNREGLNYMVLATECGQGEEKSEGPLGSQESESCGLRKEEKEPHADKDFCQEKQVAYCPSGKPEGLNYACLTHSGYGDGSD
# test: Kinase inhibitory activity (33P-ATP, filtration-binding method, Reaction Biology Corp.)
# Type: biochemical
pIC50: −log10 of the molar value.
measured-parameter: pIC50

[
  {
    "molecule": "O=C1NC2(CC2)COc2ncc(F)cc2C2COCCN2c2ccn3ncc1c3n2 (single isomer, unassigned) [WX001B]",
    "recorded-measurement": 9.00
  }
]

###

# test: Pharmacokinetic test of compounds in mice (plasma, LC/MS/MS)
# Format: in vivo, male CD-1 mice
# measurement-setup: male, CD-1, mouse, plasma, PO, 10 mg/kg, read-out: Bioavailability F %

[
  {
    "compound": "O=C(Nc1cnn2ccc(N3CCC[C@@H]3c3cc(F)ccc3F)nc12)N1CC[C@H](O)C1 [LOXO-101, larotrectinib, reference compound]",
    "unit-of-measurement": "%",
    "bioavailability": 28
  },
  {
    "compound": "O=C1NC2(CC2)COc2ncc(F)cc2C2COCCN2c2ccn3ncc1c3n2 (single isomer, unassigned) [WX001B]",
    "unit-of-measurement": "%",
    "bioavailability": 89
  },
  {
    "compound": "O=C1N[C@@H]2COC[C@@H]2Oc2ncc(F)cc2C2COCCN2c2ccn3ncc1c3n2 (stereo partly drawn) [WX005A]",
    "unit-of-measurement": "%",
    "bioavailability": 54
  }
]

###

# test: Pharmacokinetic test of compounds in rats (plasma, LC/MS/MS)
# Type: in vivo, male SD rats
# measurement-setup: PO, 10 mg/kg, read-out: Peak concentration Cmax
// reported Cmax for each item listed
measured-parameter: Cmax (nM)

[
  {
    "molecule": "C[C@@H]1COC[C@@H]2c3cc(F)cnc3O[C@@H](C)CNC(=O)c3cnn4ccc(nc34)N12",
    "measured-parameter": "Cmax",
    "unit-of-measurement": "nM",
    "recorded-measurement": 1130
  },
  {
    "molecule": "C[C@@H]1COc2ncc(F)cc2[C@H]2COC[C@@H](C)N2c2ccn3ncc(c3n2)C(=O)N1",
    "measured-parameter": "Cmax",
    "unit-of-measurement": "nM",
    "recorded-measurement": 3750
  },
  {
    "molecule": "C[C@H]1CNC(=O)c2cnn3ccc(nc23)N2CCOC[C@@H]2c2cc(F)cnc2O1 [WX004B]",
    "measured-parameter": "Cmax",
    "unit-of-measurement": "nM",
    "recorded-measurement": 1770
  },
  {
    "molecule": "O=C1NC2(CC2)COc2ncc(F)cc2[C@H]2CCOCCN2c2ccn3ncc1c3n2 [WX009A]",
    "measured-parameter": "Cmax",
    "unit-of-measurement": "nM",
    "recorded-measurement": 2630
  }
]

###

# test: Pharmacokinetic test of compounds in rats (plasma, LC/MS/MS)
# Assay type: in vivo, male SD rats
# measurement-setup: male, SD, rat, plasma, PO, 10 mg/kg, read-out: Area under the curve AUC0-last

[
  {
    "compound": "O=C1NC2(CC2)COc2ncc(F)cc2C2COCCN2c2ccn3ncc1c3n2 (single isomer, unassigned) [WX001B]",
    "AUC(0-t)": "8.07 µM·h"
  },
  {
    "compound": "O=C(Nc1cnn2ccc(N3CCC[C@@H]3c3cc(F)ccc3F)nc12)N1CC[C@H](O)C1 [LOXO-101, larotrectinib, reference compound]",
    "AUC(0-t)": "1.93 µM·h"
  }
]

###

The compounds listed here are annotated with their log10 of IC50.
# system-name: TrkA-G667C (Homo sapiens, UniProt P04629, G667C)
# Construct: purchased Reaction Biology Corp
# Sequence (P04629 33-796 G667C): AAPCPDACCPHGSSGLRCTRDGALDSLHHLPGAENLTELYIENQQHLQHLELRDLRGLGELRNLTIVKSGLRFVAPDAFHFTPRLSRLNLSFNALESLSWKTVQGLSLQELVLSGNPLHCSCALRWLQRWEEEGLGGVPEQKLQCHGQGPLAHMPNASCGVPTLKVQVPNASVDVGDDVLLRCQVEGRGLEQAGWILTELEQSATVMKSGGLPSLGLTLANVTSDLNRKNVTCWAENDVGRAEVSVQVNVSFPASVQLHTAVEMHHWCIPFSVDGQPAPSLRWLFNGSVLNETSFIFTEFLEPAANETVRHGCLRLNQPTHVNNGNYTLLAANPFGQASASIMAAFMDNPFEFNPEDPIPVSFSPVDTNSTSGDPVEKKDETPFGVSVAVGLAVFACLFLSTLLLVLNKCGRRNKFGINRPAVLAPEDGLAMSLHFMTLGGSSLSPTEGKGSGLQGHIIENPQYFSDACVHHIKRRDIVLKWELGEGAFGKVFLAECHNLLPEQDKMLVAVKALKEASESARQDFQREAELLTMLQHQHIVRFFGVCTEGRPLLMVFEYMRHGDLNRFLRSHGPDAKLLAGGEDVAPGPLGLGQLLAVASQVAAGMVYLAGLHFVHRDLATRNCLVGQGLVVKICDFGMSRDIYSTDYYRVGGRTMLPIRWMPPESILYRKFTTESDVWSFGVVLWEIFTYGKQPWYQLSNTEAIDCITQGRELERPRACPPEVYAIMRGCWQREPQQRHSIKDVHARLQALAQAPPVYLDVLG
# test: Kinase inhibitory activity (33P-ATP, filtration-binding method, Reaction Biology Corp.)
# Format: biochemical
# measurement-setup: read-out: Half maximal inhibitory concentration IC50 for kinases, TrkA-G667C
measured-parameter: log10 of IC50 (log10 of the value in nM)

[
  {
    "compound": "C[C@@H]1COc2ncc(F)cc2[C@H]2COC[C@@H](C)N2c2ccn3ncc(c3n2)C(=O)N1",
    "measured-parameter": "log10 of IC50",
    "recorded-measurement": -1.00
  },
  {
    "compound": "C[C@@H]1COC[C@@H]2c3cc(F)cnc3OCC3(CC3)NC(=O)c3cnn4ccc(nc34)N12",
    "measured-parameter": "log10 of IC50",
    "recorded-measurement": -1.00
  },
  {
    "compound": "O=C1N[C@@H]2COC[C@@H]2Oc2ncc(F)cc2[C@H]2COCCN2c2ccn3ncc1c3n2 [WX005A]",
    "measured-parameter": "log10 of IC50",
    "recorded-measurement": -0.30
  },
  {
    "compound": "O=C1NC2(CC2)CNc2ncc(F)cc2C2COCCN2c2ccn3ncc1c3n2 (single isomer, unassigned) [WX010A]",
    "measured-parameter": "log10 of IC50",
    "recorded-measurement": 2.28
  },
  {
    "compound": "C[C@H]1CNC(=O)c2cnn3ccc(nc23)N2CCOC[C@@H]2c2cc(F)cnc2O1 [WX004B]",
    "measured-parameter": "log10 of IC50",
    "recorded-measurement": 1.26
  },
  {
    "compound": "O=C1NC2(CC2)COc2ccc(F)cc2C2CCCCN2c2ccn3ncc1c3n2 (single isomer, unassigned) [WX002A]",
    "measured-parameter": "log10 of IC50",
    "recorded-measurement": -0.15
  },
  {
    "compound": "O=C1NC2(CC2)COc2ncc(F)cc2[C@H]2CCOCCN2c2ccn3ncc1c3n2 [WX009A]",
    "measured-parameter": "log10 of IC50",
    "recorded-measurement": 0.46
  },
  {
    "compound": "C[C@@H]1COC[C@@H]2c3cc(F)cnc3O[C@@H](C)CNC(=O)c3cnn4ccc(nc34)N12",
    "measured-parameter": "log10 of IC50",
    "recorded-measurement": -1.00
  }
]

###

# system-name: BaF3 ETV6-NTRK3-G623R (Homo sapiens, UniProt Q16288, G623R, cells depend on it)
# Construct: fused on or other part: N-terminal part of ETV6 (TEL) as fusion partner (part of the key); P41212 (Transcription factor ETV6)
# Sequence (Q16288 whole entry G623R, the tested form may be a part): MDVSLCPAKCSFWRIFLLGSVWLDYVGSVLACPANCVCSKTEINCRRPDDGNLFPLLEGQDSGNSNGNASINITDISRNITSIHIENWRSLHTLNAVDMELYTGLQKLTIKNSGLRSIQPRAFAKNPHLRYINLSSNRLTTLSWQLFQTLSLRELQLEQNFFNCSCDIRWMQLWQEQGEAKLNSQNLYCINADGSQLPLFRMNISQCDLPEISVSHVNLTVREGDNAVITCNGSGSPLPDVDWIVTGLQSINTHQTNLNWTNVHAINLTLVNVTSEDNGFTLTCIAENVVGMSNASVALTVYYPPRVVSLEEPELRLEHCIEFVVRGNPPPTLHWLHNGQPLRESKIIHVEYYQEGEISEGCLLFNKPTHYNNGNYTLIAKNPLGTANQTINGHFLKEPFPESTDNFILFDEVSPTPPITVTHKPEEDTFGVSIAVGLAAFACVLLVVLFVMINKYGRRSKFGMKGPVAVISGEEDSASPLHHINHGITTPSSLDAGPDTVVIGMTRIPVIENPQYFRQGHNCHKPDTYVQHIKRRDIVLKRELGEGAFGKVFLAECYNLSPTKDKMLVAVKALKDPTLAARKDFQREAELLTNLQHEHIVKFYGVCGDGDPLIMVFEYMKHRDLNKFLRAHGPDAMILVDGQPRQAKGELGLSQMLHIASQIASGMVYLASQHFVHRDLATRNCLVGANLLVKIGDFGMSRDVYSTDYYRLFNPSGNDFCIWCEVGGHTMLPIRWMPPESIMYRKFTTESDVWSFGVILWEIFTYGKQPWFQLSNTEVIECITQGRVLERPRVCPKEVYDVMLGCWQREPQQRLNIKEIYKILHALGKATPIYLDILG
# test: Inhibitory activity against cell proliferation (CellTiter-Glo, 72 hours)
# Assay type: cell-based
# measurement-setup: read-out: Half maximal inhibitory concentration IC50 of cells, BaF3 ETV6-NTRK3-G623R

[
  {
    "molecule": "C[C@@H]1COC[C@@H]2c3cc(F)cnc3OCC3(CC3)NC(=O)c3cnn4ccc(nc34)N12 [WX007]",
    "system-name": "BaF3 ETV6-NTRK3-G623R (Homo sapiens, UniProt Q16288, G623R, cells depend on it)",
    "GI50 [nM]": 13.1
  },
  {
    "molecule": "C[C@@H]1CCc2ncc(F)cc2[C@H]2CCCN2c2ccn3ncc(c3n2)C(=O)N1 [LOXO-195, reference compound]",
    "system-name": "BaF3 ETV6-NTRK3-G623R (Homo sapiens, UniProt Q16288, G623R, cells depend on it)",
    "GI50 [nM]": 2.7
  },
  {
    "molecule": "C[C@@H]1COc2ncc(F)cc2[C@H]2COC[C@@H](C)N2c2ccn3ncc(c3n2)C(=O)N1 [WX006]",
    "system-name": "BaF3 ETV6-NTRK3-G623R (Homo sapiens, UniProt Q16288, G623R, cells depend on it)",
    "GI50 [nM]": 14.2
  },
  {
    "molecule": "C[C@H]1CNC(=O)c2cnn3ccc(nc23)N2CCOC[C@@H]2c2cc(F)cnc2O1 [WX004B]",
    "system-name": "BaF3 ETV6-NTRK3-G623R (Homo sapiens, UniProt Q16288, G623R, cells depend on it)",
    "GI50 [nM]": 3.2
  },
  {
    "molecule": "O=C1N[C@@H]2COC[C@@H]2Oc2ncc(F)cc2C2COCCN2c2ccn3ncc1c3n2 (stereo partly shown) [WX005A]",
    "system-name": "BaF3 ETV6-NTRK3-G623R (Homo sapiens, UniProt Q16288, G623R, cells depend on it)",
    "GI50 [nM]": 11
  },
  {
    "molecule": "O=C1NC2(CC2)COc2ncc(F)cc2C2COCCN2c2ccn3ncc1c3n2 (single isomer, unassigned) [WX001B]",
    "system-name": "BaF3 ETV6-NTRK3-G623R (Homo sapiens, UniProt Q16288, G623R, cells depend on it)",
    "GI50 [nM]": 2.3
  },
  {
    "molecule": "C[C@@H]1COC[C@@H]2c3cc(F)cnc3O[C@@H](C)CNC(=O)c3cnn4ccc(nc34)N12 [WX008]",
    "system-name": "BaF3 ETV6-NTRK3-G623R (Homo sapiens, UniProt Q16288, G623R, cells depend on it)",
    "GI50 [nM]": 8.6
  },
  {
    "molecule": "O=C1NC2(CC2)COc2ncc(F)cc2[C@H]2CCOCCN2c2ccn3ncc1c3n2 [WX009A]",
    "system-name": "BaF3 ETV6-NTRK3-G623R (Homo sapiens, UniProt Q16288, G623R, cells depend on it)",
    "GI50 [nM]": 12.9
  },
  {
    "molecule": "O=C(Nc1cnn2ccc(N3CCC[C@@H]3c3cc(F)ccc3F)nc12)N1CC[C@H](O)C1 [LOXO-101, larotrectinib, reference compound]",
    "system-name": "BaF3 ETV6-NTRK3-G623R (Homo sapiens, UniProt Q16288, G623R, cells depend on it)",
    "GI50 [nM]": 394
  },
  {
    "molecule": "O=C1NC2(CC2)COc2ccc(F)cc2C2CCCCN2c2ccn3ncc1c3n2 (single isomer, unassigned) [WX002A]",
    "system-name": "BaF3 ETV6-NTRK3-G623R (Homo sapiens, UniProt Q16288, G623R, cells depend on it)",
    "GI50 [nM]": 5.8
  }
]

The measurements presented in this section are drawn from patent US20210403485A1.
